test system: SW1271 complex spheroids with HUVEC/MSC, growth, % test/control; experiment: Anticancer human tumor SW1271 cell line growth inhibition [AhR]; details: second compound 0.316 µM; first compound 0.00949 µM; active means viability on the fitted dose curve at most 10% of control; inactive means the rest;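 further: spheroids exposed to agents for 7 days before readout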
Write down the outcome that applies. Available outcomes: Y = active, N = inactive

# example entries with known answers
compound	label
CCc1c2c(nc3ccc(O)cc13)-c1cc3c(c(=O)n1C2)COC(=O)[C@]3(O)CC + Cc1ccccc1N=Nc1ccc(NC(=O)c2ccnn2C)c(C)c1	N
O=C(C=Cn1cnc(-c2cc(C(F)(F)F)cc(C(F)(F)F)c2)n1)NNc1cnccn1 + Cc1cncc(-c2nc(NCCc3c[nH]c4ccccc34)c3ncn(C(C)C)c3n2)c1	N
Nc1ncn(C2CC(O)C(CO)S2)c(=O)n1 (configuration not stated) + CC(CO)NC(=O)c1cc(-c2ccc(Cl)cc2)nn(-c2cnn(C)c2)c1=O	N
Nc1ncn(C2CC(O)C(CO)S2)c(=O)n1 (configuration not stated) + Cc1ccccc1N=Nc1ccc(NC(=O)c2ccnn2C)c(C)c1	N
CCc1c2c(nc3ccc(O)cc13)-c1cc3c(c(=O)n1C2)COC(=O)[C@]3(O)CC + Cc1cncc(-c2nc(NCCc3c[nH]c4ccccc34)c3ncn(C(C)C)c3n2)c1	N
O=C(C=Cn1cnc(-c2cc(C(F)(F)F)cc(C(F)(F)F)c2)n1)NNc1cnccn1 + Cc1ccccc1N=Nc1ccc(NC(=O)c2ccnn2C)c(C)c1	N

Q: For CCN(c1cc(-c2ccc(CN3CCOCC3)cc2)cc(C(=O)NCc2c(C)cc(C)[nH]c2=O)c1C)C1CCOCC1 + Cc1ccccc1N=Nc1ccc(NC(=O)c2ccnn2C)c(C)c1 , which call appears in the assay record?
Ans: N

Q: For CCN(c1cc(-c2ccc(CN3CCOCC3)cc2)cc(C(=O)NCc2c(C)cc(C)[nH]c2=O)c1C)C1CCOCC1 + CC(CO)NC(=O)c1cc(-c2ccc(Cl)cc2)nn(-c2cnn(C)c2)c1=O , which call appears in the assay record?
Ans: N

Q: For CC(C)CC(NC(=O)C(Cc1ccccc1)NC(=O)c1cnccn1)B(O)O (configuration not stated) + CC(CO)NC(=O)c1cc(-c2ccc(Cl)cc2)nn(-c2cnn(C)c2)c1=O , which call appears in the assay record?
Ans: Y
